Item-by-item account of TGI
System: LoVo
Assay: Cytotoxicity against human doxorubicin resistant LoVo cells after 48 hrs by SRB assay
Type: functional
Just the number in nM, nothing appended.

C/C=C1\NC(=O)[C@H](Cc2cccs2)NC(=O)[C@@H](C(C)C)NC(=O)[C@@H]([C@H](C)CC)NC(=O)[C@H](NC(=O)[C@H](NC(=O)[C@H](CCCN)NC(=O)[C@H]2CCCN2C(=O)[C@H](NC(=O)[C@@H](NC(=O)[C@@H](NC(=O)[C@H](NC(=O)CC[C@@H](C)CC)C(C)C)[C@@H](C)O)C(C)C)C(C)C)[C@H](C)CC)[C@H](C)OC(=O)[C@H](C(C)C)NC1=O | 391

Using the record for "C/C=C1\NC(=O)[C@H](Cc2c[nH]c3ccccc23)NC(=O)[C@@H](C(C)C)NC(=O)[C@@H]([C@H](C)CC)NC(=O)[C@H](NC(=O)[C@H](NC(=O)[C@H](CCCN)NC(=O)[C@H]2CCCN2C(=O)[C@H](NC(=O)[C@@H](NC(=O)[C@@H](NC(=O)[C@H](NC(=O)CCCC(C)C)C(C)C)[C@@H](C)O)C(C)C)C(C)C)[C@H](C)CC)[C@H](C)OC(=O)[C@H](C(C)C)NC1=O" , report its TGI.
659
